Tested on: MCF7 breast
Test: NCI-60 one-dose screen, 48 h
Settings: 10 µM unless noted
This is part of a sample that, as a whole, favours compounds with a hit. Of some 83,000 tested, about 20% had one in any assay. Calls of active or inactive are those of the source. Rule for the calls: active = growth percent below 10; inactive = the rest.
Labels: 1 (active), 0 (inactive)

| molecule | measured_on | class |
| --- | --- | --- |
| COc1cc(/C=C/c2cc(/C=C/c3ccc(O)c(OC)c3)n(C(N)=O)n2)ccc1O | MCF7 breast | 1 |
| COc1ccc(-c2cn(-c3cccc(C(=O)/C=C/c4cc(OC)c(OC)c(OC)c4)c3)c(=O)[nH]2)cc1OC | MCF7 breast | 0 |
| COc1ccc(-c2c(-c3cc(OC)c4c(c3)OCO4)noc2N)cc1 | MCF7 breast | 0 |
| CCO/C=N/C1=C(C#N)C(c2ccc(Cl)cc2)c2c(c3ccccc3n(C)c2=O)O1 (centres undefined) | MCF7 breast | 0 |
| NC(=O)c1c(NC(=S)Nc2ccc(OC(F)(F)F)cc2)sc2c1CCC1(C2)OCCO1 | MCF7 breast | 0 |
| CC(=O)OC[C@]12CC[C@H]3[C@@H](C[C@H]4O[C@]45CC=CC(=O)[C@]35C)[C@]1(O)CC[C@@]2(O)[C@@](C)(O)C1CC(C)=C(C)C(=O)O1 (some centres undefined) | MCF7 breast | 1 |
| Nc1nc(=O)c2ccccc2s1 | MCF7 breast | 0 |
| O=c1[nH]c2ccc(Br)cc2c2c1C(c1ccc(Cl)cc1)c1c(ncn3nc(-c4ccco4)nc13)O2 (centres undefined) | MCF7 breast | 0 |
| CCCCC(CC)OC(=O)C(Br)CC (centres undefined) | MCF7 breast | 0 |

---

Test system: 786-0 renal
Assay: NCI-60 one-dose screen, 48 h (100 = growth as untreated, 0 = no growth, -100 = all killed)
Settings: 10 µM unless noted
Compounds without any hit were thinned out: in the full panel of roughly 83,000, 20% have a hit.
Each entry below carries its recorded growth.

| compound | growth, % |
| --- | --- |
| C=C[C@@H]1C[C@@H]2Cc3c(C)cc(C)cc3N1O2 | 105 |
| COc1ccc(C(=O)c2cc(OC)c(OC)c(OC)c2OC)cc1O | 51 |
| CC(C)(C)OC(=O)NCCc1ccc(N=C=S)cc1 | 80 |
| COc1cc(C2C3=C(COC3=O)Nc3cc4c(cc32)OCO4)cc2c1OCO2 (stereo unspecified) | 19.9 |
| CCC(=O)OC1=CN2C(=NC(c3ccc(N)cc3)=CC2c2cc(OC)c(OC)c(OC)c2)S1 (stereo unspecified) | 72.1 |
| O=C1c2c(Cl)c(Cl)c(Cl)c(Cl)c2C(=O)C2(Cl)CC=CCC12Cl (stereo unspecified) | 0.0645 |
| CCCCCc1cc[n+](CC(=O)c2ccc([N+](=O)[O-])cc2)cc1 | 96.5 |
| CCOC(=O)c1c(NS(=O)(=O)c2ccc(C)cc2)sc2c1CCC1(C2)OCCO1 | 99.3 |
| O=[N+]([O-])c1cccc(-c2nc3sccn3c2-c2ccnc(NCCCNS(=O)(=O)c3ccc(Cl)cc3)n2)c1 | 78.7 |
| COc1ccc(S(=O)(=O)Nc2cc(/C=C\c3cc(OC)c(OC)c(OC)c3)cc(OC)c2OC)cc1 | 14 |
| CN1CCN(Cc2ccc(NC(=O)c3cncc(C#Cc4cnc(N)c5ccncc45)c3)cc2C(F)(F)F)CC1 | 35.3 |
| COc1ccc(C(=O)N2NC(=O)/C(=C/c3ccc(F)cc3)N=C2c2ccccc2)cc1 | 78.9 |
| Fc1ccccc1-c1nc(-c2nc3cc(Cl)c(Cl)cc3[nH]2)c2ccccn12 | 86.4 |
| COc1cc(-c2nn(-c3cccc(NC(=O)Nc4ccc(Cl)c(Cl)c4)c3)cc2-c2ccncc2)ccc1Cl | 15.3 |
| O=S(=O)(NCCNc1nccc(-c2c(-c3ccc(F)cc3)nc3sccn23)n1)c1ccc(F)cc1 | 73.7 |
| COc1ccc(-c2nc(/C=N/Nc3cc(C)nc4ccc(Br)cc34)c(C)o2)cc1 | -81.5 |
| Nc1cccc(Cl)c1N | 110 |
| c1ccc(Nc2nc(Nc3ccccc3)nc(Nc3ccccc3)n2)cc1 | 100 |
| CCCCN(CCCC)c1ccc(C(=N)c2ccc(N(CCCC)CCCC)cc2)cc1 | -91.2 |
| Cc1cc(N)n(S(=O)(=O)c2oc(-c3ccccc3)nc2C#N)n1 | 90.1 |
| NC1=NN(O)C2=CC([N+](=O)[O-])C=CC2=N1 (stereo unspecified) | 103 |

Sourced from PubChem BioAssay (NCI)
